# Test system: T-47D breast
# experiment_description: NCI tumour cell line growth inhibition, 48 h
value_type: TGI

Completed entries (count: 5):
- compound: "Fc1ccc(Oc2nc3ccc(C(F)(F)F)cc3nc2-c2ccccc2)cc1"
  system_name: "T-47D breast"
  TGI: "> 100 µM"
- compound: "Clc1nc(Cl)c2ncn(CC3(Cn4cnc5c(Cl)nc(Cl)nc54)COC3)c2n1"
  system_name: "T-47D breast"
  TGI: "0.391 µM"
- compound: "C=C1C(=O)O[C@@H]2C[C@@H](C)[C@@H]3C=CC(=O)[C@@]3(C)[C@@H](O)[C@H]12"
  system_name: "T-47D breast"
  TGI: "12.2 µM"
- compound: "CC(C)Cn1cnc2c(SCc3ccc(Cl)cc3Cl)nc(N)nc21"
  system_name: "T-47D breast"
  TGI: "> 100 µM"
- compound: "COC12C=C/C(=C(/C(=O)OCc3cncnc3)C(=O)CCCCCCCCC3(OC)C=C/C(=C(/C(=O)OCc4cncnc4)C(=O)CCCCCCCC1)O3)O2"
  system_name: "T-47D breast"
  TGI: "> 50 µM"

Give TGI for each listed item.
1. Cc1cc(-c2cccc3ccccc23)c(C#N)c(=S)n1C1OC(CO)C(O)C(O)C1O (centres undefined)
2. CC(=O)N1C(OC(C)C)CC(C)N1c1ccccc1 (centres undefined)
3. O=C1NCC(CSc2nc3cc(C4CCCc5c4[nH]c4ccccc54)ccc3o2)N1 (centres undefined)

Output:
1: > 100 µM; 2: > 10 µM; 3: > 100 µM

Input: Give TGI for the following compound: `CCN(C(=O)N[C@@H](Cc1ccccc1)C(=O)N[C@@H](CC(C)C)C(=O)OC)c1ccccc1`
Output: > 100 µM

###

# Tested on: NCI-H23 lung
# experiment_description: NCI tumour cell line growth inhibition, 48 h
value_type: TGI (µM)
Numbers only, in µM.

Solved entries (count: 2):
- molecule: "CCCCCCCCNc1cc2c3c(c1)CCCN3CCC2"
  value_type: "TGI"
  result_number: 18.1
- molecule: "COC12C=C/C(=C(/C(=O)OCc3cncnc3)C(=O)CCCCCCCCC3(OC)C=C/C(=C(/C(=O)OCc4cncnc4)C(=O)CCCCCCCC1)O3)O2"
  value_type: "TGI"
  result_number: 0.839

Consider the record given below.
Input: State TGI on NCI-H23 lung. Entry: O=C(COc1ccc(Cl)cc1)N1N=C(c2ccc(Cl)cc2)CC1(O)c1ccccc1 (stereo not given)
Output: 33.9

###

# System: CAKI-1 renal
# experiment_description: NCI tumour cell line growth inhibition, 48 h; in the data active = GI50 below about 0.43 µM; inactive = the rest
Where a SMILES comes first, the peptide text is derived from it. [ ]: non-standard residue; d: D form. pGlu = O=C1CC[CH](C(=O)O)N1
Thanks in advance; please answer with one of these: yes (1) = active, no (0) = inactive

These solved cases illustrate the format of a correct answer.
- compound: "CCOC(=O)/C(C=Nc1ccc(-c2nc3ccccc3[nH]2)cc1)=C(/C)O"
  system_name: "CAKI-1 renal"
  discrete_label: "no (0)"
- compound: "C=C(CN1C(=O)CN(C)C1=O)c1ccc(C(=O)Nc2ccccc2N)cc1"
  system_name: "CAKI-1 renal"
  discrete_label: "no (0)"
- compound: "CC[C@@H]1c2c(C#N)ncn2-c2cnc(Nc3ccc(C(=O)NC4CCN(C5CCN(CC6CC6)CC5)CC4)cc3OC)nc2N1C1CCCC1"
  system_name: "CAKI-1 renal"
  discrete_label: "no (0)"
- compound: "COc1ccc(C(=S)N2CCN(c3cccc(C)c3)CC2)cc1OC"
  system_name: "CAKI-1 renal"
  discrete_label: "no (0)"
- compound: "C=CCN=c1sc2c(n1NC(=O)c1cc3ccc1CCc1ccc(cc1)CC3)C(=O)c1ccccc1C2=O"
  system_name: "CAKI-1 renal"
  discrete_label: "no (0)"

Input: Hi team, can someone confirm the assay call for `O=C1C(Cl)=C(Nc2cccc(Cl)c2)C(=O)N1Cc1ccc(Cl)cc1` ?
Output: no (0)

Input: Recorded test call requested for `CN1CCC2(CC1)ONC1=NCCN12`
Output: no (0)

Input: Outcome? O=c1[nH]nnc2c1ncn2C1OC(CO)C(O)C1O (stereo not given)
Output: no (0)

Input: State the result this test recorded for CCNC(=O)C1CCCN1C(=O)C(CCCN=C(N)N)NC(=O)C(CC(C)C)NC(=O)C(CC(C)C)NC(=O)C(Cc1ccc(O)cc1)NC(=O)C(CO)NC(=O)C(Cc1c[nH]c2ccccc12)NC(=O)C(Cc1cnc[nH]1)NC(=O)C1CCC(=O)N1 (stereo not given) ([pGlu]HWSYLLRP-NHEt; configuration not given here) .
Output: no (0)

Input: What call does the record list for `COc1cc(/C=C\c2cc(OC)c(OC)c(OC)c2)cc(NC(=O)/C=C/c2cc(OC)c(OC)c(OC)c2)c1OC` ?
Output: no (0)

Input: Each compound tested received a call. Report the one for `O=C(CCCCCCNC(=O)c1cnc(N(c2ccccc2)c2ccccc2)nc1)NO` .
Output: no (0)

Input: Dear colleague, could you share the recorded outcome for CCN1C(=O)N(CC)C2C1NN=c1s/c(=C\c3cccc(F)c3)c(=O)n12 (stereo not given) when you have a moment?
Output: yes (1)

Input: Tell me the assay call for `N=C1C(c2nc3ccccc3s2)=C(O)CN1c1ccc(F)c(Cl)c1` please.
Output: no (0)

Input: Just curious, what result did `COc1ccc(/C=C/C(=O)c2cc(OC)c(OC)c(OC)c2)cc1OCc1cn(Cc2ccc(F)cc2)nn1` get here?
Output: no (0)

Input: I'd appreciate the recorded outcome for `COc1ccc(-c2nn(-c3cccc(Cl)c3)cc2-c2cc(-c3cccs3)[nH]c(=S)n2)cc1` from this test.
Output: no (0)

Input: Tell me the assay call for `ClCc1cccc2c(CCl)cccc12` please.
Output: no (0)

###

# Test system: A498 renal
# experiment_description: NCI tumour cell line growth inhibition, 48 h
value_type: GI50

Sample records with GI50:
- molecule: "COc1ccc2[nH]cc(-c3ccc(-c4c[nH]c5ccc(OC)cc45)s3)c2c1"
  result: "3580 nM"
- molecule: "COc1cc(/C=C\\c2cc(OC)c(OC)c(OC)c2)cc(NC(=O)/C=C/c2cc(OC)c(OC)c(OC)c2)c1OC"
  result: "5210 nM"
- molecule: "O=C1C(Cl)=C(Nc2cccc(Cl)c2)C(=O)N1Cc1ccc(Cl)cc1"
  result: "1550 nM"

Input: Consider the compound `N#Cc1ccc(OCc2nc(N)nc(N)c2-c2ccc(Cl)c(Cl)c2)cc1` . State its measured GI50.
Output: 1430 nM

###

# System: M14 melanoma
# experiment_description: NCI tumour cell line growth inhibition, 48 h
value_type: TGI

Consider the worked cases shown below.
- molecule: "C=CCNC(=O)N(CCCCC(NC(C)=O)C(=O)NCc1ccccc1)Cc1ccccc1 (stereo not given)"
  value_type: "TGI"
  result: "> 100 µM"
- molecule: "O=C(CCCCCCNC(=O)c1cnc(N(c2ccccc2)c2ccccc2)nc1)NO"
  value_type: "TGI"
  result: "> 100 µM"

Look up TGI for the entries below, preserving their order.
1. COC(=O)NC(=O)c1cn(C2OC(CO)C(O)C2O)c(=O)[nH]c1=O (stereo not given)
2. c1ccc(-c2nnc(-c3ccccn3)c3c2C[C@@H]2C[C@@H]4Cc5c(-c6ccccn6)nnc(-c6ccccn6)c5[C@@H]4[C@H]32)nc1
3. O=c1ccn2n1Cc1ccccc1C2

Output:
> 100 µM
43.6 µM
> 100 µM

###

# Tested on: NCI-H226 lung
# experiment_description: NCI tumour cell line growth inhibition, 48 h
Where a SMILES comes first, the peptide text is derived from it. [ ]: non-standard residue; d: D form. pGlu = O=C1CC[CH](C(=O)O)N1
value_type: GI50

These recorded examples may help you get a feel for the data.
- molecule: "CC[C@@H]1c2c(C#N)ncn2-c2cnc(Nc3ccc(C(=O)NC4CCN(C5CCN(CC6CC6)CC5)CC4)cc3OC)nc2N1C1CCCC1"
  result: "1.31 µM"
- molecule: "Cc1nnn[n-]1.N.N.N.N.N.[Cl-].[Co+3]"
  result: "> 100 µM"
- molecule: "CC(=O)NC1C(OC[C@@H](CC(=O)N[C@@H](CC(=O)O)CC(=O)N[C@H](CC(=O)N[C@@H](CCCN)CC(=O)N[C@@H](CCCN)CC(=O)N[C@H](CC(N)=O)C(C)C)C(C)C)NC(=O)C[C@@H](N)C(C)C)OC(CO)C(O)C1O (stereo partly specified)"
  result: "> 100 µM"
- molecule: "N#Cc1ccc(OCc2nc(N)nc(N)c2-c2ccc(Cl)c(Cl)c2)cc1"
  result: "4.86 µM"
- molecule: "COC12C=C/C(=C(/C(=O)OCc3cncnc3)C(=O)CCCCCCCCC3(OC)C=C/C(=C(/C(=O)OCc4cncnc4)C(=O)CCCCCCCC1)O3)O2"
  result: "0.656 µM"
- molecule: "COc1ccc(-c2nn(-c3cccc(Cl)c3)cc2-c2cc(-c3cccs3)[nH]c(=S)n2)cc1"
  result: "3.16 µM"
- molecule: "CCOC(=O)Nc1ccc2c(c1)/C(=N\\NC(N)=S)c1ccccc1-2"
  result: "4.43 µM"
- molecule: "O=C(Oc1cccc(F)c1OC(=O)c1cccc(O)c1)c1cccc(O)c1"
  result: "45.3 µM"

Batch: GI50 for all items listed.
1. COc1cc(/C=C\c2cc(OC)c(OC)c(OC)c2)cc(NC(=O)/C=C/c2cc(OC)c(OC)c(OC)c2)c1OC
2. COc1cccc(N2CCN(CC(=O)N3CCN(c4nnc(-c5ccc(Cl)cc5)c(-c5ccc(Cl)cc5)n4)CC3)CC2)c1
3. CCNC(=O)C1CCCN1C(=O)C(CCCN=C(N)N)NC(=O)C(CC(C)C)NC(=O)C(CC(C)C)NC(=O)C(Cc1ccc(O)cc1)NC(=O)C(CO)NC(=O)C(Cc1c[nH]c2ccccc12)NC(=O)C(Cc1cnc[nH]1)NC(=O)C1CCC(=O)N1 (stereo unspecified) ([pGlu]HWSYLLRP-NHEt; configuration not given here)
4. CN1CCC2(CC1)ONC1=NCCN12
5. Oc1c(-c2nnc(-c3ccccc3Cl)o2)sc2nnc(-c3ccccc3)c(-c3ccccc3)c12
6. C[C@]12CC[C@@H]3c4ccc(OC(=O)N(CCCl)CCCl)cc4CC[C@H]3[C@@H]1CC[C@@H]2O

Output:
1. 50 µM
2. 88.3 µM
3. > 100 µM
4. 21.8 µM
5. 16.1 µM
6. 3.98 µM

Quick request: GI50 for each listed item, please.
1. COc1ccc(C(=S)N2CCN(c3cccc(C)c3)CC2)cc1OC
2. COC(=O)c1ccc(-c2nc3cc(Cl)c(Cl)cc3nc2C#N)cc1

Output:
["> 100 µM", "> 100 µM"]
